System: SHI-1
TEST_PROTOCOL: cell viability (% survival relative to DMSO control, bortezomib = 0%); higher = less cytotoxic
TEST_CONDITIONS: 1000 nM; 72 h
REPORTED_METRIC: cell viability (%)
Give just the number in %; leave the unit off.

COMPOUND	NUMERIC_READOUT
NS(=O)(=O)c1ccc([N+](=O)[O-])cc1 [4-Nitrobenzenesulfonamide]	100
O=C1c2cc([N+](=O)[O-])ccc2-n2c1nc1ccccc1c2=O [GNF-Pf-3777]	66.6
COc1cc(/C=C/C(=O)N2CCC=CC2=O)cc(OC)c1OC [Piperlongumine]	89
COc1ccc(S(=O)(=O)N2CCN(S(=O)(=O)c3ccc4c(c3)OCCO4)CC2)cc1 [BML283]	96.3

// sample CCCCCCCCCCC[C@@H](C[C@@H]1OC(=O)[C@H]1CCCCCC)OC(=O)[C@H](CC(C)C)NC=O [Orlistat] , its cell viability was 108

// sample O=C1O[C@H]([C@@H](O)CO)C(O)=C1O [Vitamin C (ascorbate)] , its cell viability was 102

// sample CC(C)(C#N)c1cc(Cn2cncn2)cc(C(C)(C)C#N)c1 [Anastrozole] , its cell viability was 101

// sample O[C@H]1[C@H]2[C@H](O)CCCN2C[C@H]1O [Swainsonine] , its cell viability was 108

* * *

System: myeloid leukemia patient primary cells Pat.14
TEST_PROTOCOL: cell viability (% survival relative to DMSO control); higher = less cytotoxic
TEST_CONDITIONS: 1000 nM; 72 h
REPORTED_METRIC: cell viability (%)
Give just the number in %; leave the unit off.

Please review the following examples before continuing.
COMPOUND	UNITS	cell viability
Nc1nc(Cl)nc2c1ncn2[C@H]1C[C@H](O)[C@@H](CO)O1	%	3.16
O=C(C1CC1)N1CC[C@@H](C=C2NNC(=O)N2c2ccc(-c3ccc4occc4c3)cc2)C1	%	77.3
O=C1O/C(=C/Br)CCC1c1cccc2ccccc12 (stereo unspecified)	%	21.8

// sample `C[C@H](NC(=O)c1sccc1OCc1ccc(Cl)cc1)c1ccccc1` , its cell viability was 99.3

// sample `O=C(O)Cn1nnc(-c2cc(N3CCC(Oc4cc(F)ccc4Br)CC3)no2)n1` , its cell viability was 90.2

// sample `Cc1c(-c2ccc(-c3ccccc3F)cc2)nc2ccc(F)cc2c1C(=O)O` , its cell viability was 65.6

* * *

This listing pairs molecules with measured cell viability.
System: HL-60
TEST_PROTOCOL: cell viability (% survival relative to DMSO control, bortezomib = 0%); higher = less cytotoxic
TEST_CONDITIONS: 10000 nM; 72 h
Give just the number in %; leave the unit off.

Please review the following examples before continuing.
MOLECULE	UNITS	cell viability
NS(=O)(=O)c1ccc([N+](=O)[O-])cc1 [4-Nitrobenzenesulfonamide]	%	108
NC(=O)c1cccc(-c2cccc(OC(=O)NC3CCCCC3)c2)c1	%	103
O=C(O)Cn1nnc(-c2cc(N3CCC(Oc4cc(F)ccc4Br)CC3)no2)n1	%	94.3
N#Cc1ccnc(N2C(=O)CC[C@H]2C(=O)N(c2cncc(F)c2)C(C(=O)NC2CC(F)(F)C2)c2ccccc2Cl)c1 (some centres not stated)	%	92.1

// sample `O=C(O)C1=CC(=C(c2ccc(O)c(C(=O)O)c2)c2ccc(O)c(C(=O)O)c2)C=CC1=O` , its cell viability was 111

// sample CN(C)c1cc(NC(=O)CNC(C)(C)C)c(O)c2c1C[C@H]1C[C@H]3[C@H](N(C)C)C(=O)C(C(N)=O)C(=O)[C@@]3(O)C(=O)C1C2=O (some centres not stated) , its cell viability was 75.6

// sample O=C1O/C(=C/Br)CCC1c1cccc2ccccc12 (configuration not stated) , its cell viability was 77.2
